Target: CpNDH2 (CpNDH2-WT; MBP-CpNDH2) (Cryptosporidium parvum)
Construct: full-length ORF (568 predicted residues), N-terminal MBP fusion from pMAL-c5X, E. coli BL21(DE3), amylose-resin purified
Sequence (F0X6E5 entry or part of it): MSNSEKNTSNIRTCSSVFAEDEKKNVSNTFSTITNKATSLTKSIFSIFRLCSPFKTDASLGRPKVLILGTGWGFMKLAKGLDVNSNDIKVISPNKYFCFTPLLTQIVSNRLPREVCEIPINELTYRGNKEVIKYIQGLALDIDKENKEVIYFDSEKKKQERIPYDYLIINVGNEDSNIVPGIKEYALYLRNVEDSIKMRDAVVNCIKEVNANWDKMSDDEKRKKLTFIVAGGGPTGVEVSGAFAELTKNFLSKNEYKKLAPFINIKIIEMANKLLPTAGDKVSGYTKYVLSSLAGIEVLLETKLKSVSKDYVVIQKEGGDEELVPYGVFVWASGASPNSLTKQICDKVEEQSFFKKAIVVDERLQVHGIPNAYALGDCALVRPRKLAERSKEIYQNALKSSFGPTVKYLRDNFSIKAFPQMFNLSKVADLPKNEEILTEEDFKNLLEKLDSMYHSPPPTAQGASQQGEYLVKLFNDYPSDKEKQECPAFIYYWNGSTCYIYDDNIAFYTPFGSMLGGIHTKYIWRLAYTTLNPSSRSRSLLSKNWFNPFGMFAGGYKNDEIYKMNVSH
Experiment: inhibition of menadione reduction, NADH oxidation at […] nm
readout label: IC50 (nM)
Please reply with the bare figure in nM and do not write the unit itself.

Value sought: IC50, system CpNDH2 (CpNDH2-WT; MBP-CpNDH2) (Cryptosporidium parvum), item CC(C)/N=c1\cc2n(-c3ccc(Cl)cc3)c3ccccc3nc-2cc1Nc1ccc(Cl)cc1 . Result: 2950
